test: Cytotoxicity (CC50) in the GT1b replicon test; format: cell-based; settings: gt1b replicon cells

{"molecule": "CC(C)OC(=O)[C@H](C)N[P@](=O)(OC[C@H]1O[C@@H](n2ccc(=O)[nH]c2=O)[C@](C)(F)[C@@H]1O)Oc1ccccc1 [drawing 472]", "CC50": "> 2 µM"}
{"molecule": "CC(C)OC(=O)[C@H](C)NP(=O)(OC[C@H]1O[C@@H](n2ccc(=O)[nH]c2=S)[C@](C)(O)[C@@H]1O)Oc1ccccc1 (some centres unmarked) [drawing 470]", "CC50": "> 10 µM"}

---

Reported EC50 by item:
test system: 2b (GT1b/2b NS5B chimera); experiment: microbe, parasite or virus in culture; assay type: cell-based, HCV; conditions: Hepatitis C virus, read-out: EC50(µM) 2b (GT1b/2b NS5B chimera)
attributeMeasured: EC50

{"compound": "CC(C)OC(=O)[C@H](C)NP(=O)(OC[C@H]1O[C@@H](n2ccc(=O)[nH]c2=S)[C@](C)(O)[C@@H]1O)Oc1ccccc1 (some centres unmarked) [drawing 470]", "reportedResult": "0.083 µM"}
{"compound": "CC(C)OC(=O)[C@H](C)N[P@](=O)(OC[C@H]1O[C@@H](n2ccc(=O)[nH]c2=O)[C@](C)(F)[C@@H]1O)Oc1ccccc1 [drawing 472]", "reportedResult": "0.0199 µM"}

---

Reported EC50 by item:
system: Dengue Type 2; test: Anti-Dengue Virus Cytoprotection Assay, Dengue Type 2; conditions: Vero, read-out: Dengue Type 2 Vero Cells (EC50 uM)

{"compound": "C[C@@]1(O)[C@H](O)[C@@H](CO)O[C@H]1n1ccc(=O)[nH]c1=S [drawing 473]", "experimentalTarget": "Dengue Type 2", "EC50 (µM)": 7.79}
{"compound": "CC(C)OC(=O)[C@H](C)NP(=O)(OC[C@H]1O[C@@H](n2ccc(=O)[nH]c2=S)[C@](C)(O)[C@@H]1O)Oc1ccccc1 (some centres unmarked) [drawing 474]", "experimentalTarget": "Dengue Type 2", "EC50 (µM)": 2.02}

---

Reported CC50 by item:
experiment: Cytotoxicity panel (CC50), CEM; format: cell-based; conditions: human, cem cells

{"molecule": "CC(C)OC(=O)[C@H](C)NP(=O)(OC[C@H]1O[C@@H](n2ccc(=S)[nH]c2=O)[C@](C)(O)[C@@H]1O)Oc1ccccc1 (some centres unmarked) [drawing 455]", "CC50": "169 µM"}
{"molecule": "CC(C)OC(=O)[C@H](C)N[P@@](=O)(OC[C@H]1O[C@@H](n2ccc(=O)[nH]c2=O)[C@](C)(F)[C@@H]1O)Oc1ccccc1", "CC50": "> 400 µM"}
{"molecule": "C[C@@]1(O)[C@H](O)[C@@H](CO)O[C@H]1n1ccc(=O)[nH]c1=S [drawing 452]", "CC50": "> 200 µM"}
{"molecule": "CC(C)OC(=O)[C@H](C)NP(=O)(OC[C@H]1O[C@@H](n2ccc(=S)[nH]c2=O)[C@H](O)[C@@H]1O)Oc1ccccc1 (some centres unmarked) [drawing 462]", "CC50": "> 400 µM"}
{"molecule": "CC(C)OC(=O)[C@H](C)N[P@](=O)(OC[C@H]1O[C@@H](n2ccc(=O)[nH]c2=O)[C@](C)(F)[C@@H]1O)Oc1ccccc1 [drawing 460]", "CC50": "> 400 µM"}
{"molecule": "C[C@H](NP(=O)(O)OC[C@H]1O[C@@H](n2ccc(=O)[nH]c2=S)[C@](C)(O)[C@@H]1O)C(=O)O", "CC50": "> 400 µM"}
{"molecule": "CC(C)OC(=O)[C@H](C)NP(=O)(OC[C@H]1O[C@@H](n2ccc(=O)[nH]c2=S)[C@](C)(O)[C@@H]1O)Oc1ccccc1 (some centres unmarked) [drawing 453]", "CC50": "> 300 µM"}
{"molecule": "C[C@@]1(F)[C@H](O)[C@@H](CO)O[C@H]1n1ccc(=S)[nH]c1=O", "CC50": "> 400 µM"}
{"molecule": "C[C@@]1(O)[C@H](O)[C@@H](CO)O[C@H]1n1ccc(=S)[nH]c1=O", "CC50": "> 400 µM"}
{"molecule": "C[C@@]1(O)[C@H](O)[C@@H](COP(=O)(O)O)O[C@H]1n1ccc(=O)[nH]c1=S", "CC50": "> 400 µM"}
{"molecule": "CC(C)OC(=O)[C@H](C)NP(=O)(OC[C@H]1O[C@@H](n2ccc(=O)[nH]c2=S)[C@H](O)[C@@H]1O)Oc1ccccc1 (some centres unmarked) [drawing 463]", "CC50": "> 400 µM"}

---

experiment: Anti-Dengue assay, toxicity (XTT) in Huh-7 cells; conditions: human

{"compound": "CC(C)OC(=O)[C@H](C)NP(=O)(OC[C@H]1O[C@@H](n2ccc(=O)[nH]c2=S)[C@](C)(O)[C@@H]1O)Oc1ccccc1 (stereo partly shown) [drawing 474]", "CC50": "> 100 µM"}

---

test system: Huh-7; test: Cytotoxicity panel (CC50), Huh-7; format: cell-based, human; conditions: Huh-7
Reported CC50 by item:
attributeMeasured: CC50

{"compound": "CC(C)OC(=O)[C@H](C)NP(=O)(OC[C@H]1O[C@@H](n2ccc(=S)[nH]c2=O)[C@H](O)[C@@H]1O)Oc1ccccc1 (stereo partly drawn) [drawing 462]", "attributeMeasured": "CC50", "reportedResult": "369 µM"}
{"compound": "CC(C)OC(=O)[C@H](C)NP(=O)(OC[C@H]1O[C@@H](n2ccc(=S)[nH]c2=O)[C@](C)(O)[C@@H]1O)Oc1ccccc1 (stereo partly drawn) [drawing 447]", "attributeMeasured": "CC50", "reportedResult": "> 400 µM"}
{"compound": "CC(C)OC(=O)[C@H](C)NP(=O)(OC[C@H]1O[C@@H](n2ccc(=O)[nH]c2=S)[C@H](O)[C@@H]1O)Oc1ccccc1 (stereo partly drawn) [drawing 451]", "attributeMeasured": "CC50", "reportedResult": "> 400 µM"}

---

experiment: Cytotoxicity panel (CC50), IEC-6; format: cell-based; conditions: rat, iec-6 cells
attributeMeasured: CC50

{"compound": "CC(C)OC(=O)[C@H](C)NP(=O)(OC[C@H]1O[C@@H](n2ccc(=S)[nH]c2=O)[C@](C)(F)[C@@H]1O)Oc1ccccc1 (stereo partly shown)", "reportedResult": "> 400 µM"}
{"compound": "CC(C)OC(=O)[C@H](C)NP(=O)(OC[C@H]1O[C@@H](n2ccc(=O)[nH]c2=S)[C@](C)(O)[C@@H]1O)Oc1ccccc1 (stereo partly shown) [drawing 453]", "reportedResult": "> 200 µM"}
{"compound": "CC(C)OC(=O)[C@H](C)NP(=O)(OC[C@H]1O[C@@H](n2ccc(=S)[nH]c2=O)[C@](C)(O)[C@@H]1O)Oc1ccccc1 (stereo partly shown) [drawing 455]", "reportedResult": "> 400 µM"}
{"compound": "CC(C)OC(=O)[C@H](C)NP(=O)(OC[C@H]1O[C@@H](n2ccc(=O)[nH]c2=O)[C@](C)(O)[C@@H]1O)Oc1ccccc1 (stereo partly shown)", "reportedResult": "80 µM"}

---

test: Cytotoxicity panel (CC50), HepG2; type: cell-based; details: human, hepg2 cells

{"compound": "CC(C)OC(=O)[C@H](C)NP(=O)(OC[C@H]1O[C@@H](n2ccc(=O)[nH]c2=[Se])[C@](C)(O)[C@@H]1O)Oc1ccccc1 (stereo partly drawn)", "CC50": "> 400 µM"}
{"compound": "CC(C)OC(=O)[C@H](C)NP(=O)(OC[C@H]1O[C@@H](n2ccc(=O)[nH]c2=S)[C@](C)(O)[C@@H]1O)Oc1ccccc1 (stereo partly drawn) [drawing 453]", "CC50": "> 400 µM"}
{"compound": "CC(C)OC(=O)[C@H](C)NP(=O)(OC[C@H]1O[C@@H](n2ccc(=S)[nH]c2=O)[C@](C)(O)[C@@H]1O)Oc1ccccc1 (stereo partly drawn) [drawing 455]", "CC50": "> 400 µM"}

---

experiment: Cytotoxicity panel (CC50), A204; assay type: cell-based; details: human, a204 cells
Reported CC50 by item:
attributeMeasured: CC50

{"compound": "CC(C)OC(=O)[C@H](C)NP(=O)(OC[C@H]1O[C@@H](n2ccc(=S)[nH]c2=O)[C@](C)(F)[C@@H]1O)Oc1ccccc1 (stereo partly shown)", "reportedResult": "> 200 µM"}
{"compound": "CC(C)OC(=O)[C@H](C)NP(=O)(OC[C@H]1O[C@@H](n2ccc(=O)[nH]c2=[Se])[C@](C)(O)[C@@H]1O)Oc1ccccc1 (stereo partly shown)", "reportedResult": "> 400 µM"}
{"compound": "CC(C)OC(=O)[C@H](C)NP(=O)(OC[C@H]1O[C@@H](n2ccc(=S)[nH]c2=O)[C@](C)(O)[C@@H]1O)Oc1ccccc1 (stereo partly shown) [drawing 455]", "reportedResult": "> 200 µM"}
{"compound": "CC(C)OC(=O)[C@H](C)NP(=O)(OC[C@H]1O[C@@H](n2ccc(=O)[nH]c2=S)[C@](C)(O)[C@@H]1O)Oc1ccccc1 (stereo partly shown) [drawing 453]", "reportedResult": "98 µM"}
